Some compounds, each annotated with its measured pIC50.
biological target: WT full-length TPH2 (Homo sapiens, UniProt Q8IWU9); construct: both the doubly truncated TPH1 protein and WT full-length TPH2 protein; assay: Tryptophan hydroxylase enzymatic activity assay, WT full-length TPH2; conditions: mean (95% confidence interval), three experiments in duplicate
Sequence (Q8IWU9 whole entry, the tested form may be a part): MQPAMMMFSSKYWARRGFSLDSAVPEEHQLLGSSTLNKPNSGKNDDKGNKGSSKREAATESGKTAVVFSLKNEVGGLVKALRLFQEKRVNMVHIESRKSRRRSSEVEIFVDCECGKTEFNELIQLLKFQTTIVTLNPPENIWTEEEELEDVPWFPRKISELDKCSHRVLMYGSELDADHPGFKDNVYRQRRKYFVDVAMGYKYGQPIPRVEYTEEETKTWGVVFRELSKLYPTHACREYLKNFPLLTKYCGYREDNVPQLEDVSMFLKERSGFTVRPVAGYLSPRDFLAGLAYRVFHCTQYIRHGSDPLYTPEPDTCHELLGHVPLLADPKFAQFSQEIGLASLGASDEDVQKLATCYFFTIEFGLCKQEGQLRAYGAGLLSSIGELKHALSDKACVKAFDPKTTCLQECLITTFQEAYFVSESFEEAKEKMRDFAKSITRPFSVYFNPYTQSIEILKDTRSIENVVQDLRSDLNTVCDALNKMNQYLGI
pIC50: −log10 of the molar value.
QUANTITY: pIC50

>>> observed_value("Cc1c(OCC(F)(F)F)ccnc1C[S@@+]([O-])c1nc2ccccc2[nH]1 [(R)-lansoprazole]")
5.47
>>> observed_value("COc1ccc2[nH]c([S+]([O-])Cc3ncc(C)c(OC)c3C)nc2c1 (centres unmarked)")
5.37
>>> observed_value("Cc1c(OCC(F)(F)F)ccnc1C[S+]([O-])c1nc2ccccc2[nH]1 (centres unmarked)")
5.28
>>> observed_value("COc1ccnc(C[S+]([O-])c2nc3cc(-n4cccc4)ccc3[nH]2)c1C (centres unmarked)")
6.28
>>> observed_value("COc1ccnc(C[S+]([O-])c2nc3ccc(OC(F)F)cc3[nH]2)c1OC (centres unmarked)")
5.09
>>> observed_value("COCCCOc1ccnc(C[S+]([O-])c2nc3ccccc3[nH]2)c1C (centres unmarked)")
5.67
>>> observed_value("COc1ccc2nc([S@@+]([O-])Cc3ncc(C)c(OC)c3C)[nH]c2c1")
5.67
>>> observed_value("COc1ccc2[nH]c([S+]([O-])Cc3ncc(C)c(OC)c3C)nc2n1 (centres unmarked)")
5.31

====

molecular target: doubly truncated TPH1 (ΔNH102-ΔCOOH402) (Homo sapiens); construct: The ΔNH102-ΔCOOH402 human TPH1 gene was cloned; six-His (C); test: Tryptophan hydroxylase enzymatic activity assay (HPLC quantification of 5-OH-Trp), doubly truncated TPH1; details: doubly truncated TPH1; 20 µM L-Trp, 200 µM BH4, 37°C; mean (95% confidence interval), three experiments in duplicate
pIC50: −log10 of the molar value.
Measured pIC50 of individual entries
QUANTITY: pIC50

>>> observed_value("COCCCOc1ccnc(C[S+]([O-])c2nc3ccccc3[nH]2)c1C (centres unmarked)")
5.12
>>> observed_value("COc1ccc2[nH]c([S+]([O-])Cc3ncc(C)c(OC)c3C)nc2c1 (centres unmarked)")
5.51
>>> observed_value("COc1ccnc(C[S+]([O-])c2nc3ccc(OC(F)F)cc3[nH]2)c1OC (centres unmarked)")
4.66

====

# Lookup of reported IC50 keyed by entry
Molecular target: MAO-A (Homo sapiens)
Construct: purchased BioVision, Inc, Milpitas, CA
Sequence (P21397 1-527): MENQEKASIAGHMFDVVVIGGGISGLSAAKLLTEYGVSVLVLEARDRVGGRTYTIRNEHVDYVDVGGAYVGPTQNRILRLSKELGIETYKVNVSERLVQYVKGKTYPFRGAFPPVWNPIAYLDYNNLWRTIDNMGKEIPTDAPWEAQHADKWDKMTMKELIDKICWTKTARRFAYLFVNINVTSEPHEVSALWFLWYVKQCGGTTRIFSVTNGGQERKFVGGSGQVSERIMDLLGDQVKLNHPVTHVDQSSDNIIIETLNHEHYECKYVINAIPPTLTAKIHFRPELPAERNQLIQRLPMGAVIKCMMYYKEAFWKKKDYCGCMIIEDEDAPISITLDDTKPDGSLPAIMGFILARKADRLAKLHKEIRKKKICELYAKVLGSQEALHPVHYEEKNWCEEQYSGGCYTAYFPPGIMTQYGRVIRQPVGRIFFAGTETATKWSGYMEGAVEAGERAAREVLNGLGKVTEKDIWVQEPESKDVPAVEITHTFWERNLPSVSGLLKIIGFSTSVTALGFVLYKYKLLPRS
Assay: MAO-A enzymatic activity assay (MAO-A Inhibitor Screening Kit, fluorimetric detection of H2O2)
Format: biochemical
Conditions: 25°C, 15 min kinetic read; mean (95% confidence interval), three experiments
QUANTITY: IC50 (µM)

>>> observed_value("COc1ccnc(C[S+]([O-])c2nc3cc(-n4cccc4)ccc3[nH]2)c1C (centres unmarked) [Ilaprazole]")
29
>>> observed_value("COCCCOc1ccnc(C[S+]([O-])c2nc3ccccc3[nH]2)c1C (centres unmarked) [Rabeprazole]")
12.8
>>> observed_value("COc1ccnc(C[S+]([O-])c2nc3ccc(OC(F)F)cc3[nH]2)c1OC (centres unmarked) [Pantoprazole]")
462
>>> observed_value("Cc1c(OCC(F)(F)F)ccnc1C[S@@+]([O-])c1nc2ccccc2[nH]1 [(R)-lansoprazole]")
137
>>> observed_value("COc1ccc2[nH]c([S+]([O-])Cc3ncc(C)c(OC)c3C)nc2n1 (centres unmarked) [Tenatoprazole]")
29.2
>>> observed_value("Cc1c(OCC(F)(F)F)ccnc1C[S+]([O-])c1nc2ccccc2[nH]1 (centres unmarked) [Lansoprazole]")
251
>>> observed_value("COc1ccc2nc([S@@+]([O-])Cc3ncc(C)c(OC)c3C)[nH]c2c1 [Esomeprazole]")
18
>>> observed_value("COc1ccc2[nH]c([S+]([O-])Cc3ncc(C)c(OC)c3C)nc2c1 (centres unmarked) [Omeprazole]")
89.4

====

Target: full-length WT TPH1 (Homo sapiens, UniProt P17752)
Sequence (P17752 1-444): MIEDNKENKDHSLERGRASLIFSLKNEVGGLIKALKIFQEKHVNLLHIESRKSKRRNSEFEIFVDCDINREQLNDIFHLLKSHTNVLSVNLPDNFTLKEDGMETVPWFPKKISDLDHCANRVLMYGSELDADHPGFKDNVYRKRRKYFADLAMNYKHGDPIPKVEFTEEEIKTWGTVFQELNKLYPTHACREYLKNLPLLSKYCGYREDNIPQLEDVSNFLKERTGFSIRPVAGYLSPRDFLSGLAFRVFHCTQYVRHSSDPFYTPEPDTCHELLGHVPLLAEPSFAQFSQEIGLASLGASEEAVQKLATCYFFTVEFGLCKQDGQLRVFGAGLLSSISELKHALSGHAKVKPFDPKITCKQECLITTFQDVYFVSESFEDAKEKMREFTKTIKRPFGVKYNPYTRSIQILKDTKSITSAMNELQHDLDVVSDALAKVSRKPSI
pIC50: −log10 of the molar value.
QUANTITY: pIC50

>>> observed_value("COc1ccc2[nH]c([S+]([O-])Cc3ncc(C)c(OC)c3C)nc2c1 (stereo not shown) [Omeprazole]")
5.45

====

Reported IC50 values follow for various molecules
target: doubly truncated TPH1 (ΔNH102-ΔCOOH402) (Homo sapiens, UniProt P17752); construct: The ΔNH102-ΔCOOH402 human TPH1 gene was cloned; six-His (C); assay: Tryptophan hydroxylase enzymatic activity assay (HPLC quantification of 5-OH-Trp), doubly truncated TPH1; settings: doubly truncated TPH1; 20 µM L-Trp, 200 µM BH4, 37°C; mean (95% confidence interval), three experiments in duplicate
QUANTITY: IC50 (µM)

>>> observed_value("COc1ccc2nc([S@@+]([O-])Cc3ncc(C)c(OC)c3C)[nH]c2c1")
3.76
>>> observed_value("Cc1c(OCC(F)(F)F)ccnc1C[S+]([O-])c1nc2ccccc2[nH]1 (centres unmarked)")
24.6
>>> observed_value("Cc1c(OCC(F)(F)F)ccnc1C[S@@+]([O-])c1nc2ccccc2[nH]1 [(R)-lansoprazole]")
18.8
>>> observed_value("COc1ccc2[nH]c([S+]([O-])Cc3ncc(C)c(OC)c3C)nc2n1 (centres unmarked)")
2.16

Reference source: paper PMC7726444
